# assayedSystem: UniProt P09769
# Sequence (P09769 whole entry): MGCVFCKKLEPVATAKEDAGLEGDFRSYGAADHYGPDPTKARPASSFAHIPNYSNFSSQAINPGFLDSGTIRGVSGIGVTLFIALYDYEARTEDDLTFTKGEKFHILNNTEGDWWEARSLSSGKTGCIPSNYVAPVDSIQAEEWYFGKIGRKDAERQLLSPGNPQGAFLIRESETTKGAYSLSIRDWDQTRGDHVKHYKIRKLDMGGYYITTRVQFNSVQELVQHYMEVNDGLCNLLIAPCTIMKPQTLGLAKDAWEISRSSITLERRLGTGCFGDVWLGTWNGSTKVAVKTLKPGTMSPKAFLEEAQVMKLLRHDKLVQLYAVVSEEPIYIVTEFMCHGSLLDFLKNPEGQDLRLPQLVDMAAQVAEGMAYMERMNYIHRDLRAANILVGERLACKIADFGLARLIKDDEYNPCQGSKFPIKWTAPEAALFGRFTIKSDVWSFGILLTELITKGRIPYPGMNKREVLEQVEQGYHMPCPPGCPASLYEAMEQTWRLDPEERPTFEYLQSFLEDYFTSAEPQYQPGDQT
measuredMetric: pIC50
Please report pIC50 as the negative decimal logarithm of the molar concentration, giving only the number.

Exam item: Name the reported pIC50 value associated with the compound CNc1ncnc(-c2cccnc2Oc2ccc(F)c(C(=O)Nc3cc(C(F)(F)F)ccc3N(C)CCCN(C)C)c2)n1
Marked response: 5.08

###

# protocolDescription: Half life in Sprague-Dawley rat at 1 mg/kg, iv
# Format: ADME, organism-based
# Parameters: dose 1 mg/kg, route intravenous
# conditionParameters: in vivo
measuredMetric: half-life (h)
Write the value in h as a bare number.

Exam item: Name the reported half-life value associated with the compound CNc1ncnc(-c2cccnc2Oc2ccc(F)c(C(=O)Nc3cc(C(F)(F)F)ccc3N(C)CCCN(C)C)c2)n1
Marked response: 1.6

###

# assayedSystem: Platelet-derived growth factor receptor beta (Homo sapiens, UniProt P09619)
# Sequence (P09619 whole entry): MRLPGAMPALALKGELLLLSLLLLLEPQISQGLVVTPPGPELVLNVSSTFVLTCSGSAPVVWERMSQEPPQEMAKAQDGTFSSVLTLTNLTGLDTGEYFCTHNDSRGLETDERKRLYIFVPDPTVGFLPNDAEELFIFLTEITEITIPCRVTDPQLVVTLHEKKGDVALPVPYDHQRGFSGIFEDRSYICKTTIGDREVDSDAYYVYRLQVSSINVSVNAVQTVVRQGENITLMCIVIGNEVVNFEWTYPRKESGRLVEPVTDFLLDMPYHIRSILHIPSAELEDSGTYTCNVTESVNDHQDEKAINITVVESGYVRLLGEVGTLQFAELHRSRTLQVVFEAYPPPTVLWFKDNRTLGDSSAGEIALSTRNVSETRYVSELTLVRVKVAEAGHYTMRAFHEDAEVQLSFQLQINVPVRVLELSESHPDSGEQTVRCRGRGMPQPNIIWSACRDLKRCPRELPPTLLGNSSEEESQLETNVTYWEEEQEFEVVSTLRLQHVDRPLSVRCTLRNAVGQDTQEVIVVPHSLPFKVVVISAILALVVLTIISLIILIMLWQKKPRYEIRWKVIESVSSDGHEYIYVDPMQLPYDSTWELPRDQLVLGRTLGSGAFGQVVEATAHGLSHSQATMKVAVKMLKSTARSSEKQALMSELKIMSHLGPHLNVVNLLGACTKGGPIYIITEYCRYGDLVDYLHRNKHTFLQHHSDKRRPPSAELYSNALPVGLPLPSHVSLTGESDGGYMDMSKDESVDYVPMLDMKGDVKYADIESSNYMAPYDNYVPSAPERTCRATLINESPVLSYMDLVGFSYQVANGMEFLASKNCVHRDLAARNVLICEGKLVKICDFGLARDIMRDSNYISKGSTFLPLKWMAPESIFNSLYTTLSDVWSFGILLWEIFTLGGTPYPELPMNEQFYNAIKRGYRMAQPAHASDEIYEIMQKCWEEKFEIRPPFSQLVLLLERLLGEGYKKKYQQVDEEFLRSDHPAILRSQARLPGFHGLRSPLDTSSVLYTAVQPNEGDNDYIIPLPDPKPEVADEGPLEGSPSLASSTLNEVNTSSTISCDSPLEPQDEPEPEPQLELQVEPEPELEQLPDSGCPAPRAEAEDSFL
measuredMetric: pIC50
Please report pIC50 as the negative decimal logarithm of the molar concentration, giving only the number.

Exam item: Name the reported pIC50 value associated with the molecule CNc1ncnc(-c2cccnc2Oc2ccc(F)c(C(=O)Nc3cc(C(F)(F)F)ccc3N(C)CCCN(C)C)c2)n1
Marked response: 5.71

###

# assayedSystem: Tyrosine-protein kinase JAK3 (Homo sapiens, UniProt P52333)
# Sequence (P52333 whole entry): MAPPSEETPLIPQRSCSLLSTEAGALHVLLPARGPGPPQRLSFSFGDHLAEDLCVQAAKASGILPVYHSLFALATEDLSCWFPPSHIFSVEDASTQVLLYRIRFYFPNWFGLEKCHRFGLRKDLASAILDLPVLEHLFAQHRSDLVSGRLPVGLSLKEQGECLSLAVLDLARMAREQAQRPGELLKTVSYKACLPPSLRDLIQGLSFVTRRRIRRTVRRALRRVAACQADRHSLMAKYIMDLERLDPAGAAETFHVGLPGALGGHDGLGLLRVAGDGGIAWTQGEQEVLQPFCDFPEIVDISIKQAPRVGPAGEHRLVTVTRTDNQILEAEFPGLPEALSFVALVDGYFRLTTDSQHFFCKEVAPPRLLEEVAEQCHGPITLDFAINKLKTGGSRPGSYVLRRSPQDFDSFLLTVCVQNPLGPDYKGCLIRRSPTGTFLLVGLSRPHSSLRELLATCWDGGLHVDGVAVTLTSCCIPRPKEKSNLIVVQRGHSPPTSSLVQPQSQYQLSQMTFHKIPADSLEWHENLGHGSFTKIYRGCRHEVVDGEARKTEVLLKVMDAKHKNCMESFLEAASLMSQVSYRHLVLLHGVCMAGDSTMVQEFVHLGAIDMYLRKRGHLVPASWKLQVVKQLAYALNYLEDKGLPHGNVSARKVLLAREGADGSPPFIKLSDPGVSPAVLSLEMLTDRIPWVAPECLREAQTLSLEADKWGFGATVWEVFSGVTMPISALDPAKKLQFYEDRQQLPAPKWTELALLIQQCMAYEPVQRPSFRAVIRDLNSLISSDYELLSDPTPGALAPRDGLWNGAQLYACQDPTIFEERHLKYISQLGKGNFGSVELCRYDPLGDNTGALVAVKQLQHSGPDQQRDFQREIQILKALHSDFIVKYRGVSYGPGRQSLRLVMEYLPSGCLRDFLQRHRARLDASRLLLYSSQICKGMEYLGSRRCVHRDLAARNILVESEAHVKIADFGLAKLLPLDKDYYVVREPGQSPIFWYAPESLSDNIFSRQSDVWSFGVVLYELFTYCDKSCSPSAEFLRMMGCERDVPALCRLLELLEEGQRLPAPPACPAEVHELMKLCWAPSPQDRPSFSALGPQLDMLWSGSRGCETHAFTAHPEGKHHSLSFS
measuredMetric: IC50 (µM)
Write the value in µM as a bare number.

Exam item: Name the reported IC50 value associated with the compound CNc1ncnc(-c2cccnc2Oc2ccc(F)c(C(=O)Nc3cc(C(F)(F)F)ccc3N(C)CCCN(C)C)c2)n1
Marked response: 25
